Every entry's value here was drawn from patent US20230374147A1.

Molecular target: T1, Human BCMA-His (Sino Biological, 10620-H08H) (human, UniProt Q02223 1-54)
T1 construct: not shown: His tag
T1 sequence: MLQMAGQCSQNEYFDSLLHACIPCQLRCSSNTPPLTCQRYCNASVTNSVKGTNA
Test: ELISA, coated Human BCMA-His
VALUE KIND: pEC50
# reply with the number alone; pEC50 is -log10 of concentration in mol/L

Query block: Suppose we examine the binder 1C8-6A3 hIgG1 (antibody, V domains shown, also called [94]; hu1C8) VH: QVQLVQSGAEVKKPGASVKVSCKASGYTFTNYVMHWVKQKPGQGLEWMGYILPYNDGTKYAQKFQGKVTMTSDKSTSTVYMELSSLTSEDTAVYYCARYDYEGSFDYWGQGTLVTVSS VL: DIQMTQSPSSLSASVGDRVTITCRASQDISNYLNWYQQKPGKAPKLLMCYTSRLHSGVPSRFSGSGSGTDFTLTISSLEQEDFATYYCQQGNTFPPTFGGGTKVEIKR ; what pEC50 value has been reported?
Result block: 11.30
